molecular target: h-GABA-A α5β3γ2 (Homo sapiens (Human), UniProt P18507+P31644); experiment: [3H]flumazenil competition binding assay, membranes of HEK293 cells expressing human GABAA receptors; conditions: displacement of [3H]flumazenil 0.5 nM, HEK293 cells expressing human receptors, mean of two determinations; read-out: Ki h-GABA-A α5β3γ2
REPORTED_PROPERTY: Ki (nM)

MOLECULE | REPORTED_PROPERTY | UNIT_INFO | READOUT_NUMBER
Cc1ccc(-c2noc(C)c2COc2cnc(C(=O)NC3CCS(=O)(=O)CC3)cn2)cn1 [Example 72] | Ki | nM | 11.4
CCO[C@H]1CC[C@H](NC(=O)c2ccc(OCc3c(-c4ccc(C)nc4)noc3C)nn2)CC1 [Example 195] | Ki | nM | 17.3
Cc1ccc(-c2noc(C)c2COc2ccc(C(=O)N[C@@H]3CC[C@@H](OCC(F)F)C3)nn2)cn1 [Example 191] | Ki | nM | 11.2
Cc1ccc(-c2noc(C)c2COc2cnc(C(=O)NCCO)cn2)cn1 [Example 90] | Ki | nM | 16.7
Cc1ccc(-c2noc(C)c2COc2ccc(C(=O)N3CC4(C3)CC(F)(F)C4)nn2)cn1 [Example 155] | Ki | nM | 15.4
Cc1ccc(-c2noc(C)c2COc2ccc(C(=O)NCC(C)C)nn2)cn1 [Example 39] | Ki | nM | 14.6
Cc1ccc(-c2noc(C)c2COc2ccc(C(N)=O)cn2)cn1 [Example 17] | Ki | nM | 9.8
Cc1ccc(-c2noc(C)c2COc2ccc(C(=O)NC3CCOCC3)cn2)nn1 [Example 108] | Ki | nM | 0.4

###

target: h-GABA-A α5β3γ2 (Homo sapiens (Human), UniProt P18507+P31644); assay: Two-electrode voltage clamp electrophysiology in Xenopus oocytes expressing GABAA receptors, modulation of GABA EC20 current; format: cell-based; conditions: Xenopus oocytes, GABA EC20, test compound at approx. 30 fold its Ki
// label = T if Fold increase h-GABA-A α5β3γ2 oocyte is not less than 2, otherwise F

COMPOUND | CATEGORY_LABEL
CNC(=O)c1ccc(OCc2c(-c3ccc(C)nc3)noc2C)nc1F | F
Cc1ccc(-c2noc(C)c2COc2ccc(C(=O)NC3(C)CCS(=O)(=O)CC3)nn2)cn1 | F
Cc1ccc(-c2noc(C)c2COc2ccc(C(=O)NC3CCOC3)nn2)cn1 (racemic) | F
Cc1ccc(-c2noc(C)c2COc2ccc(C(=O)NCCO)nn2)cn1 | F
Cc1ccc(-c2noc(C)c2COc2cc3c(cn2)C(=O)N(C2CCOCC2)C3)cn1 | F
Cc1ccc(-c2noc(C)c2COc2ccc(C(=O)NC3CC3)nn2)cn1 | F
Cc1ncc(-c2noc(C)c2COc2ccc(C(=O)NC3CCOCC3)cn2)cc1F | F
COc1cc(OCc2c(-c3ccc(C)nc3)noc2C)ncc1C(=O)NC1CCOCC1 | F
Cc1onc(-c2ccc(Cl)nc2)c1COc1ccc(C(=O)NC2CCOCC2)nn1 | F
CCC[C@@H](CO)NC(=O)c1ccc(OCc2c(-c3ccc(OC)nc3)noc2C)nc1 | T
Cc1ccc(-c2noc(C)c2COc2ccc(C(=O)NC3(C(F)(F)F)CC3)nn2)cn1 | F
Cc1ccc(-c2noc(C)c2COc2cc3c(cn2)C(=O)N(C2CCSCC2)C3)cn1 | F
Cc1ccc(-c2noc(C)c2COc2ccc(C(=O)N[C@H]3CCCC[C@@H]3O)cn2)cn1 | F
CCc1onc(-c2ccc(C)nc2)c1COc1ccc(C(=O)NC2CCOCC2)nn1 | T
Cc1onc(-c2ccc(Cl)nc2)c1COc1ccc(C(=O)NC2(C)COC2)nn1 | F
Cc1ccc(-c2noc(C)c2COc2cnc(C(=O)NC3CCC(F)(F)CC3)cn2)cn1 | T
Cc1ccc(-c2noc(C)c2COc2ccc(C(=O)N[C@H]3CC4CCC3O4)nn2)cn1 (stereo partly drawn) | F
Cc1ccc(-c2noc(C)c2COc2ccc(C(=O)NC3(C)CCCC3)nn2)cn1 | F
CCO[C@H]1C[C@@H](NC(=O)c2ccc(OCc3c(-c4ccc(C)nc4)noc3C)nn2)C1 | F
Cc1ccc(-c2noc(C)c2COc2cc3c(cn2)C(=O)N(C2CCS(=O)(=O)CC2)C3)cn1 | T
CCC[C@@H](CO)NC(=O)c1ccc(OCc2c(-c3ccc(C)nc3)noc2C2CC2)nc1 | T
CCc1onc(-c2ccc(C)nc2)c1COc1ccc(C(=O)NC2(C)COC2)nn1 | T
Cc1ccc(-c2noc(C)c2COc2ccc(C(=O)NCC3COC3)nn2)cn1 | F
Cc1ccc(-c2noc(C)c2COc2ccc(C(=O)N[C@H]3CCCOC3)nn2)cn1 | F
CCO[C@H]1C[C@H](NC(=O)c2ccc(OCc3c(-c4ccc(C)nc4)noc3C)nn2)C1 | F
Cc1ccc(-c2noc(C)c2COc2ccc(C(=O)NCC3(O)COC3)nn2)cn1 | F
Cc1ccc(-c2noc(C)c2COc2ccc(C(=O)N[C@H]3CC[C@](C)(O)CC3)nn2)cn1 | F
Cc1ccc(-c2noc(C)c2COc2cnc(C(=O)NC3CCOCC3)cn2)cn1 | F
Cc1ccc(-c2noc(C)c2COc2ccc(C(=O)NC3CN(C(C)C)C3)nn2)cn1 | F
